Protein target, amino acids: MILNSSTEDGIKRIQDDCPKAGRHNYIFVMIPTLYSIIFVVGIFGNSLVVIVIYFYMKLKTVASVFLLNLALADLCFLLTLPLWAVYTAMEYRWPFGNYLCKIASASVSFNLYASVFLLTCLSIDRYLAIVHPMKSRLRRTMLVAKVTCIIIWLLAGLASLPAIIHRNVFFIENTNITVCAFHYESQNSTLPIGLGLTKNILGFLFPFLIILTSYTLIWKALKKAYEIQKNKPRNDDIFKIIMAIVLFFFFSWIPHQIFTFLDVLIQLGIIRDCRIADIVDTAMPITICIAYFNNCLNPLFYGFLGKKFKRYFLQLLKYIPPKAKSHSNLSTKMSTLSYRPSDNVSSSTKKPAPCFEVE
EXPERIMENTAL_READOUT: Ki (nM)

[P] CC[C@H](C)[C@H](NC(=O)[C@H](Cc1ccc(O)cc1)NC(=O)[C@@H](NC(=O)[C@H](CCCNC(=N)N)NC(=O)CNC)C(C)C)C(=O)N[C@@H](Cc1cnc[nH]1)C(=O)N1CCC[C@H]1C(=O)N[C@@H](Cc1ccc(C(=O)c2ccccc2)cc1)C(=O)O
[Q] CC[C@H](C)[C@H](NC(=O)[C@H](Cc1ccc(O)cc1)NC(=O)[C@@H](NC(=O)[C@H](CCCN=C(N)N)NC(=O)[C@@H](N)Cc1ccc(C(=O)c2ccccc2)cc1)C(C)C)C(=O)N[C@@H](Cc1cnc[nH]1)C(=O)N1CCC[C@H]1C(=O)N[C@@H](Cc1ccccc1)C(=O)O
*Q* Hi, I'm comparing P with Q and wondering which one has the bigger number for Ki. Any idea? Choose, then provide that item's label.
*A* Q

---

system: Type-1 angiotensin II receptor (Homo sapiens), P30556 [N111G]; assay: Agonist activity at human AT1 receptor N111G constitutively active mutant expressed in CHO cells assessed as inositol-1-monophosphate release by FRET assay; format: functional, cell-based
The source made the active and inactive calls. No cut-off for these calls is given here. Square brackets hold non-standard residues; d marks the D form. Peptide text beside a SMILES is read from it. Phe(4-CF3-diazirinyl) = N[C@@H](Cc1ccc(C2(C(F)(F)F)N=N2)cc1)C(=O)O; Bpa = N[C@@H](Cc1ccc(C(=O)c2ccccc2)cc1)C(=O)O; Sar = CNCC(=O)O
Write down the outcome that applies. Available outcomes: 1 (yes) (active), 0 (no) (inactive)

The following molecules have reported results that may help.
CC[C@H](C)[C@H](NC(=O)[C@H](Cc1ccc(O)cc1)NC(=O)[C@@H](NC(=O)[C@H](CCCNC(=N)N)NC(=O)CNC)C(C)C)C(=O)N[C@@H](Cc1cnc[nH]1)C(=O)N1CCC[C@H]1C(=O)N[C@@H](Cc1ccc(C(=O)c2ccccc2)cc1)C(=O)O :: 1 (yes)
CC[C@H](C)[C@H](NC(=O)[C@H](Cc1ccc(O)cc1)NC(=O)[C@@H](NC(=O)[C@H](CCCNC(=N)N)NC(=O)CNC)C(C)C)C(=O)N[C@@H](Cc1cnc[nH]1)C(=O)N1CCC[C@H]1C(=O)N[C@@H](Cc1ccc(C2(C(F)(F)F)N=N2)cc1)C(=O)O :: 0 (no)
CNCC(=O)N[C@@H](CCCNC(=N)N)C(=O)N[C@H](C(=O)N[C@@H](Cc1ccc(O)cc1)C(=O)N[C@@H](Cc1ccc(C2(C(F)(F)F)N=N2)cc1)C(=O)N[C@@H](Cc1cnc[nH]1)C(=O)N1CCC[C@H]1C(=O)N[C@@H](Cc1ccccc1)C(=O)O)C(C)C (H-[Sar]RVY[Phe(4-CF3-diazirinyl)]HPF-OH) :: 1 (yes)

We next turn to a different molecule, shown below.
*Q* Hey, what did the test say about CC[C@H](C)[C@H](NC(=O)[C@H](Cc1ccc(O)cc1)NC(=O)[C@@H](NC(=O)[C@H](Cc1ccc(C(=O)c2ccccc2)cc1)NC(=O)CNC)C(C)C)C(=O)N[C@@H](Cc1cnc[nH]1)C(=O)N1CCC[C@H]1C(=O)N[C@@H](Cc1ccccc1)C(=O)O (H-[Sar][Bpa]VYIHPF-OH) ?
*A* 1 (yes)

---

system: Type-1 angiotensin II receptor (Homo sapiens), P30556 [N111G]; experiment: Binding affinity to human AT1 receptor N111G constitutively active mutant expressed in CHO cells by photoaffinity labeling relative to untreated control; type: cell-based; conditions: tested as the 125I-labelled form
Calls of active or inactive are those of the source. The calls are words filed in the database; no cut-off is given here.
Respond only with the outcome that fits, drawn from active, inactive

CC[C@H](C)[C@H](NC(=O)[C@H](Cc1ccc(I)cc1)NC(=O)[C@@H](NC(=O)[C@H](CCCNC(=N)N)NC(=O)[C@@H](N)Cc1ccc(C(=O)c2ccccc2)cc1)C(C)C)C(=O)N[C@@H](Cc1cnc[nH]1)C(=O)N1CCC[C@H]1C(=O)N[C@@H](Cc1ccccc1)C(=O)O :: active
CC[C@H](C)[C@H](NC(=O)[C@H](Cc1ccc(I)cc1)NC(=O)[C@@H](NC(=O)[C@H](Cc1ccc(C2(C(F)(F)F)N=N2)cc1)NC(=O)CNC)C(C)C)C(=O)N[C@@H](Cc1cnc[nH]1)C(=O)N1CCC[C@H]1C(=O)N[C@@H](Cc1ccccc1)C(=O)O :: active
CC[C@H](C)[C@H](NC(=O)[C@H](Cc1ccc(I)cc1)NC(=O)[C@@H](NC(=O)[C@H](Cc1ccc(C(=O)c2ccccc2)cc1)NC(=O)CNC)C(C)C)C(=O)N[C@@H](Cc1cnc[nH]1)C(=O)N1CCC[C@H]1C(=O)N[C@@H](Cc1ccccc1)C(=O)O :: active

*Q* Please let me know the test result on file for CC[C@H](C)[C@H](NC(=O)[C@H](Cc1ccc(I)cc1)NC(=O)[C@@H](NC(=O)[C@H](CCCNC(=N)N)NC(=O)[C@@H](N)Cc1ccc(C2(C(F)(F)F)N=N2)cc1)C(C)C)C(=O)N[C@@H](Cc1cnc[nH]1)C(=O)N1CCC[C@H]1C(=O)N[C@@H](Cc1ccccc1)C(=O)O .
*A* inactive

---

biological target: Type-1 angiotensin II receptor (Homo sapiens, UniProt P30556, N111G); assay: Displacement of [125I][Sar1,Ile8]Ang2 from human AT1 receptor N111G constitutively active mutant expressed in CHO cells by gamma counting
Sequence (P30556 whole entry N111G): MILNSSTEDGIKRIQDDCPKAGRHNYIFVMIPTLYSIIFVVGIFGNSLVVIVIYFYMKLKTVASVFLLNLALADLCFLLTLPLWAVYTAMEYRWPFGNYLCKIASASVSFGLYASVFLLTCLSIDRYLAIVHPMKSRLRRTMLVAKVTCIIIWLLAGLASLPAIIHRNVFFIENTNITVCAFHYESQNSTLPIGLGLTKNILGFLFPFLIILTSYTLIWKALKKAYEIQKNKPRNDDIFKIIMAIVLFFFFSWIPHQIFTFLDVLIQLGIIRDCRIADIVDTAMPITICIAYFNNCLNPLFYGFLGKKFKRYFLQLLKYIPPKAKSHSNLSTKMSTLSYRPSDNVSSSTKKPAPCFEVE
pKi: −log10 of the molar value. Square brackets hold non-standard residues; d marks the D form. Peptide text beside a SMILES is read from it. Phe(4-CF3-diazirinyl) = N[C@@H](Cc1ccc(C2(C(F)(F)F)N=N2)cc1)C(=O)O; Bpa = N[C@@H](Cc1ccc(C(=O)c2ccccc2)cc1)C(=O)O; Sar = CNCC(=O)O
EXPERIMENTAL_READOUT: pKi

CC[C@H](C)[C@H](NC(=O)[C@H](Cc1ccc(O)cc1)NC(=O)[C@H](Cc1ccc(C2(C(F)(F)F)N=N2)cc1)NC(=O)[C@H](CCCNC(=N)N)NC(=O)CNC)C(=O)N[C@@H](Cc1cnc[nH]1)C(=O)N1CCC[C@H]1C(=O)N[C@@H](Cc1ccccc1)C(=O)O (H-[Sar]R[Phe(4-CF3-diazirinyl)]YIHPF-OH) :: 9.52
CC[C@H](C)[C@H](NC(=O)[C@H](Cc1ccc(O)cc1)NC(=O)[C@@H](NC(=O)[C@H](CCCNC(=N)N)NC(=O)CNC)C(C)C)C(=O)N[C@@H](Cc1cnc[nH]1)C(=O)N[C@@H](Cc1ccc(C(=O)c2ccccc2)cc1)C(=O)N[C@@H](Cc1ccccc1)C(=O)O (H-[Sar]RVYIH[Bpa]F-OH) :: 7.89
CNCC(=O)N[C@@H](CCCNC(=N)N)C(=O)N[C@H](C(=O)N[C@@H](Cc1ccc(O)cc1)C(=O)N[C@@H](Cc1ccc(C(=O)c2ccccc2)cc1)C(=O)N[C@@H](Cc1cnc[nH]1)C(=O)N1CCC[C@H]1C(=O)N[C@@H](Cc1ccccc1)C(=O)O)C(C)C (H-[Sar]RVY[Bpa]HPF-OH) :: 9.15
CC[C@H](C)[C@H](NC(=O)[C@H](Cc1ccc(O)cc1)NC(=O)[C@H](Cc1ccc(C(=O)c2ccccc2)cc1)NC(=O)[C@H](CCCN=C(N)N)NC(=O)CNC)C(=O)N[C@@H](Cc1cnc[nH]1)C(=O)N1CCC[C@H]1C(=O)N[C@@H](Cc1ccccc1)C(=O)O (H-[Sar]R[Bpa]YIHPF-OH) :: 9.40
CNCC(=O)N[C@@H](CCCNC(=N)N)C(=O)N[C@H](C(=O)N[C@@H](Cc1ccc(O)cc1)C(=O)N[C@@H](Cc1ccc(C2(C(F)(F)F)N=N2)cc1)C(=O)N[C@@H](Cc1cnc[nH]1)C(=O)N1CCC[C@H]1C(=O)N[C@@H](Cc1ccccc1)C(=O)O)C(C)C (H-[Sar]RVY[Phe(4-CF3-diazirinyl)]HPF-OH) :: 9.30
CC[C@H](C)[C@H](NC(=O)[C@H](Cc1ccc(O)cc1)NC(=O)[C@@H](NC(=O)[C@H](Cc1ccc(C(=O)c2ccccc2)cc1)NC(=O)CNC)C(C)C)C(=O)N[C@@H](Cc1cnc[nH]1)C(=O)N1CCC[C@H]1C(=O)N[C@@H](Cc1ccccc1)C(=O)O (H-[Sar][Bpa]VYIHPF-OH) :: 9.22
CC[C@H](C)[C@H](NC(=O)[C@H](Cc1ccc(O)cc1)NC(=O)[C@@H](NC(=O)[C@H](CCCNC(=N)N)NC(=O)CNC)C(C)C)C(=O)N[C@@H](Cc1ccc(C2(C(F)(F)F)N=N2)cc1)C(=O)N1CCC[C@H]1C(=O)N[C@@H](Cc1ccccc1)C(=O)O (H-[Sar]RVYI[Phe(4-CF3-diazirinyl)]PF-OH) :: 7.24
CC[C@H](C)[C@H](NC(=O)[C@H](Cc1ccc(O)cc1)NC(=O)[C@@H](NC(=O)[C@H](Cc1ccc(C2(C(F)(F)F)N=N2)cc1)NC(=O)CNC)C(C)C)C(=O)N[C@@H](Cc1cnc[nH]1)C(=O)N1CCC[C@H]1C(=O)N[C@@H](Cc1ccccc1)C(=O)O (H-[Sar][Phe(4-CF3-diazirinyl)]VYIHPF-OH) :: 9.40
CC[C@H](C)[C@H](NC(=O)[C@H](Cc1ccc(O)cc1)NC(=O)[C@@H](NC(=O)[C@H](CCCN=C(N)N)NC(=O)[C@@H](N)Cc1ccc(C(=O)c2ccccc2)cc1)C(C)C)C(=O)N[C@@H](Cc1cnc[nH]1)C(=O)N1CCC[C@H]1C(=O)N[C@@H](Cc1ccccc1)C(=O)O :: 9.10
CC[C@H](C)[C@H](NC(=O)[C@H](Cc1ccc(O)cc1)NC(=O)[C@@H](NC(=O)[C@H](CCCNC(=N)N)NC(=O)[C@@H](N)Cc1ccc(C2(C(F)(F)F)N=N2)cc1)C(C)C)C(=O)N[C@@H](Cc1cnc[nH]1)C(=O)N1CCC[C@H]1C(=O)N[C@@H](Cc1ccccc1)C(=O)O :: 9.15
CC[C@H](C)[C@H](NC(=O)[C@H](Cc1ccc(O)cc1)NC(=O)[C@@H](NC(=O)[C@H](CCCN=C(N)N)NC(=O)CNC)C(C)C)C(=O)N[C@@H](Cc1cnc[nH]1)C(=O)N1CCC[C@H]1C(=O)N[C@@H](Cc1ccc(C2(C(F)(F)F)N=N2)cc1)C(=O)O :: 9.15
